- assay.overview: CHI Log D procedure
- Type: physicochemical
- applied.conditions: pH 7.4, CHI Log D
assay.endpoint: chromatographic logD

1) CC(=O)N1CCC[C@]12CC=CCCCC1(CCCC=CCCCOC(=O)N3CC[C@@](C(=O)N[C@@H](Cc4csc5ccccc45)C(=O)N[C@@H](Cc4csc5ccccc45)C(=O)N[C@@H](Cc4c[nH]cn4)C(N)=O)(C3)NC(=O)[C@H](CC(N)=O)NC(=O)[C@H](Cc3ccccc3)NC(=O)[C@H](C)NC(=O)[C@H](C)NC(=O)[C@H](CC(=O)O)NC(=O)[C@H](CC(=O)O)NC1=O)NC(=O)[C@H](CC(C)(C)C)NC(=O)[C@H](CC(=O)O)NC2=O (stereo partly shown)    2.39
2) CC(=O)N1CCC[C@]12CC=CCCCC1(CCCC=CCCCOC(=O)N3CC[C@@](C(=O)N[C@@H](Cc4ccccc4Cl)C(=O)N[C@@H](Cc4csc5ccccc45)C(=O)N[C@@H](C(N)=O)[C@H](C)O)(C3)NC(=O)[C@H](CC(N)=O)NC(=O)[C@H](Cc3ccccc3)NC(=O)[C@H](C)NC(=O)[C@H](C)NC(=O)[C@H](CC(=O)O)NC(=O)[C@H](CC(=O)O)NC1=O)NC(=O)[C@H](CC(C)(C)C)NC(=O)[C@H](CC(=O)O)NC2=O (stereo partly shown)    2.4
3) CC(=O)N1CCC[C@]12CC=CCCCC1(CCCC=CCCCCCC[C@@](C)(C(=O)N[C@@H](Cc3ccccc3Cl)C(=O)N[C@@H](Cc3csc4ccccc34)C(=O)N[C@@H](CCC(N)=O)C(N)=O)NC(=O)[C@H](CC(N)=O)NC(=O)[C@H](Cc3ccccc3)NC(=O)[C@H](C)NC(=O)[C@H](C)NC(=O)[C@H](CCC(=O)O)NC(=O)[C@H](CC(=O)O)NC1=O)NC(=O)[C@H](C)NC(=O)[C@H](CC(=O)O)NC2=O (stereo partly shown)    2.13
4) CC(=O)N1CCC[C@]12CC=CCCCC1(CCCC=CCCCOC(=O)N3CC[C@@](C(=O)N[C@@H](Cc4ccsc4)C(=O)N[C@@H](Cc4csc5ccccc45)C(=O)N[C@@H](CCC(N)=O)C(N)=O)(C3)NC(=O)[C@H](CC(N)=O)NC(=O)[C@H](Cc3ccccc3)NC(=O)[C@H](C)NC(=O)[C@H](C)NC(=O)[C@H](CC(=O)O)NC(=O)[C@H](CC(=O)O)NC1=O)NC(=O)[C@H](CC(C)(C)C)NC(=O)[C@H](CC(=O)O)N(C)C2=O (stereo partly shown)    1.41

----------
- assay.system: full-length beta-Catenin (Uniprot ID P35222) (Homo sapiens)
- Construct: 10 nM full-length beta-Catenin (Uniprot ID P35222)
- Sequence (P35222 1-781): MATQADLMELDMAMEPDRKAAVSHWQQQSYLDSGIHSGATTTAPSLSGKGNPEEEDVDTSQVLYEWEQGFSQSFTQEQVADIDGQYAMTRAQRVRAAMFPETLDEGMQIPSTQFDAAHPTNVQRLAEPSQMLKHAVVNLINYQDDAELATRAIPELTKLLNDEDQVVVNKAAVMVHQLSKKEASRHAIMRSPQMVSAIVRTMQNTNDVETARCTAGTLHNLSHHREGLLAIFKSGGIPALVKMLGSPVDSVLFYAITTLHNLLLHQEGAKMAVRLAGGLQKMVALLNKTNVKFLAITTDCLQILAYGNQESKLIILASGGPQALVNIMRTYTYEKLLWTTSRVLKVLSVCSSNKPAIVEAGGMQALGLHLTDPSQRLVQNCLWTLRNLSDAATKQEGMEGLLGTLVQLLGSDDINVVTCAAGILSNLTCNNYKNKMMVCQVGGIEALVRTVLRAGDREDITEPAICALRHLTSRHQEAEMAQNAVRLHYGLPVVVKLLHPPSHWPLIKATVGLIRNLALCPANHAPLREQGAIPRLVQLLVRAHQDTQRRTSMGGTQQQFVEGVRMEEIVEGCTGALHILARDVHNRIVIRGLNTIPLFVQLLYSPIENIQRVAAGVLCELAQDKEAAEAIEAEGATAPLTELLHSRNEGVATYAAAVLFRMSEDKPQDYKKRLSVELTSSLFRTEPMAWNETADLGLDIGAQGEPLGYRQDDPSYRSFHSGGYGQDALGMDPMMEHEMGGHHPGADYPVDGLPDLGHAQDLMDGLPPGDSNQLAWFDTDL
- assay.overview: Fluorescence polarization IC50 (beta-catenin / 5FAM-TCF4 10-53 competition)
- Type: binding
- applied.conditions: read-out: FP EC50
assay.endpoint: IC50 (nM)

1) CCCC[C@@H]1NC(=O)[C@H](CCC(=O)O)NC(=O)[C@H](CC(=O)O)NC(=O)C2(CCCC=CCCCCCC[C@@](C)(C(=O)N[C@@H](Cc3ccccc3)C(=O)N[C@@H](Cc3csc4ccccc34)C(=O)N[C@@H](CCC(N)=O)C(N)=O)NC(=O)[C@H](CCC(N)=O)NC(=O)[C@H](Cc3ccccc3)NC(=O)[C@H](C)NC1=O)CCCC=CC[C@]1(CCCN1C(C)=O)C(=O)N[C@@H](CC(=O)O)C(=O)N[C@@H]([C@@H](C)CC)C(=O)N2 (stereo partly shown) [I-656]    73
2) CCC[C@@H]1NC(=O)[C@H](CC(=O)O)NC(=O)[C@]2(CC=CCCCC3(CCCC=CCCCCCC[C@@](C)(C(=O)N[C@@H](Cc4ccccc4)C(=O)N[C@@H](Cc4csc5ccccc45)C(=O)N[C@@H](CCC(N)=O)C(N)=O)NC(=O)[C@H](CCC(N)=O)NC(=O)[C@H](Cc4ccccc4)NC(=O)[C@H](C)NC(=O)[C@H](C)NC(=O)[C@H](CCC(=O)O)NC(=O)[C@H](CC(=O)O)NC3=O)NC1=O)CCCN2C(C)=O (stereo partly shown) [I-522]    75
3) CC[C@H](C)[C@@H]1NC(=O)[C@H](CC(=O)O)NC(=O)[C@]2(CC=CCCCC3(CCCC=CCCCCCC[C@@](C)(C(=O)N[C@@H](Cc4ccccc4)C(=O)N[C@@H](Cc4csc5ccccc45)C(=O)N[C@@H](CCC(N)=O)C(N)=O)NC(=O)[C@H](CCC(N)=O)NC(=O)[C@H](Cc4ccccc4)NC(=O)[C@H](C)NC(=O)[C@H](CCCCNC(=O)CN=[N+]=[N-])NC(=O)[C@H](CCC(=O)O)NC(=O)[C@H](CC(=O)O)NC3=O)NC1=O)CCCN2C(C)=O (stereo partly shown) [I-592]    24
4) CC(=O)N1CCC[C@]12CC=CCCCC1(CCCC=CCCCCCC[C@@](C)(C(=O)N[C@@H](Cc3ccccc3)C(=O)N[C@@H](Cc3csc4ccccc34)C(=O)N[C@@H](Cc3c[nH]cn3)C(N)=O)NC(=O)[C@H]([C@@H](C)O)NC(=O)[C@H](Cc3ccccc3)NC(=O)[C@H](C)NC(=O)[C@H](C)NC(=O)[C@H](CCC(=O)O)NC(=O)[C@H](CC(=O)O)NC1=O)NC(=O)[C@H](CC(C)C)NC(=O)[C@H](CC(=O)O)NC2=O (stereo partly shown) [I-618]    135
